ASSAY_TARGET: Amine oxidase [flavin-containing] A (Rattus norvegicus, UniProt P21396)
Sequence (P21396 whole entry): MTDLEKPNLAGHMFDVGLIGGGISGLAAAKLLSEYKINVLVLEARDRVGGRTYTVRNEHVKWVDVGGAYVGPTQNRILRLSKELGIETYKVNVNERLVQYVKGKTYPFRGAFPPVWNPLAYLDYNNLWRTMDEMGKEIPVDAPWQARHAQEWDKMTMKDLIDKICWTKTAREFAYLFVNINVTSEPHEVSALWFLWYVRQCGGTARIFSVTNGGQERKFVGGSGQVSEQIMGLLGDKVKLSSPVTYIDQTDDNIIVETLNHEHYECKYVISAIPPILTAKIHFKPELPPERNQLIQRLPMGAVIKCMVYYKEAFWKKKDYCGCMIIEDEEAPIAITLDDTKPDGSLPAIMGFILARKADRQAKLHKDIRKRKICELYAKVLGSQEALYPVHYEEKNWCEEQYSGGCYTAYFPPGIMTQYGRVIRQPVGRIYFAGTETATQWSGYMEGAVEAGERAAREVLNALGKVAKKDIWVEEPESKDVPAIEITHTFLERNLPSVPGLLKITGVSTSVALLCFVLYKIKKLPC
ASSAY_SUMMARY: Percent inhibition against monoamine oxidase A at 0.1 uM concentration.
METRIC: inhibition at 0.1 µM (%)
One number for each entry, in %.

CCCc1cccc2c1S(=O)(=O)c1c(CCC)cccc1O2    0
CCC(O)c1cccc2c1S(=O)(=O)c1ccccc1O2 (configuration not stated)    0
O=S1(=O)c2ccccc2Oc2cccc(C(F)(F)C(F)(F)F)c21    5
O=S1(=O)c2ccccc2Oc2ccc(C(F)(F)F)cc21    8
O=S(=O)(c1ccccc1)c1cccc2c1S(=O)(=O)c1ccccc1O2    0

Please report inhibition at 0.1 µM for every entry that follows.
1. C[Si](C)(C)c1cccc2c1S(=O)(=O)c1ccccc1O2
2. CC(C)c1cccc2c1S(=O)(=O)c1ccccc1O2
3. CC(=O)OC(C)c1cccc2c1S(=O)(=O)c1ccccc1O2 (configuration not stated)
4. Nc1cccc2c1S(=O)(=O)c1c(N)cccc1O2
5. CCOP(=O)(Cc1cccc2c1S(=O)(=O)c1ccccc1O2)OCC
6. CCc1cccc2c1S(=O)(=O)c1c(CC)cccc1O2
7. CCN(CC)CCC(=N)c1cccc2c1S(=O)(=O)c1ccccc1O2

0
0
0
0
0
0
0

Reference for the values: ChEMBL document CHEMBL1131245
